SYSTEM_UNDER_TEST: UniProtKB P50613
Sequence (P50613 whole entry, looked up): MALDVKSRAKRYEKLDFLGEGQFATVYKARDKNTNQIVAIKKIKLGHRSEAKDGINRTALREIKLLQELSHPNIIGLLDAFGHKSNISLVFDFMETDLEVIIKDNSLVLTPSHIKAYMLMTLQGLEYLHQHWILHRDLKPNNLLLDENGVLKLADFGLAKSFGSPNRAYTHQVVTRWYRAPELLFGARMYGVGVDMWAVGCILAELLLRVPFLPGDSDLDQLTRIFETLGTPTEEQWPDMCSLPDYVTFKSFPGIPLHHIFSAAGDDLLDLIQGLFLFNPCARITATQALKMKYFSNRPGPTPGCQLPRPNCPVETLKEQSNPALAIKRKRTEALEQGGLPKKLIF
TEST_PROTOCOL: KINOMEscan competition binding
CONDITION_CONTEXT: compound 10.0 µM
READOUT_LABEL: kinase still bound, per cent of control (%)
One number for each entry, in %.

>>> recorded_value("N#Cc1cc(-c2ccnc(Nc3ccc(-n4cnc(-c5cccnc5)n4)cc3)n2)cc(N2CCOCC2)c1")
1.2
>>> recorded_value("CC(=O)c1c(C)c2cnc(Nc3ccc(N4CCNCC4)cn3)nc2n(C2CCCC2)c1=O")
12
>>> recorded_value("CCc1nc(-c2cccc(C)c2)c(-c2ccnc(NC(=O)c3ccccc3)c2)s1")
100
>>> recorded_value("COc1cc2ncnc(Nc3cccc(Cl)c3)c2cc1OC")
26

Turning to the following molecule.
Task item: Fill in the blank: the reported kinase still bound, per cent of control of `CCN1CCN(Cc2ccc(NC(=O)c3ccc(C)c(/C=C/c4cnc5[nH]ccc5c4OC)c3)cc2C(F)(F)F)CC1` is ____.
Reply: 41
